Tested on: stimulated primary human T cells
Assay: T cell proliferation assay (rescue of proliferation in presence of ATP, CFSE dilution)
Format: cell-based
Details: 100 uM ATP, Condition B: X-VIVO15, 2% HSA and 0,1% AAG, read-out: (2) T Cell proliferation (Condition B) IC50
METRIC_NAME: IC50

Some entries whose results are on file:
MOLECULE	IC50
COc1cc2cc(c1OC)OCCCC(OC(=O)c1cnccn1)CCN1CCCN(CCCOC2=O)CC1 (stereo not shown)	> 0.5 µM
COc1cc2cc(c1OC)CCC[C@@H](OC(=O)c1cc(OC)c(OC)c(OC)c1)CCN1CCCN(CCCNC2=O)CC1	> 0.5 µM
COc1cc(C(=O)O[C@@H]2CCCOc3cccc(c3)C(=O)OCCCN3CCCN(CC2)CC3)cc(OC)c1OC (stereo in doubt)	> 0.5 µM
COc1cc2cc(c1OC)OCCCC(OC(=O)c1c[nH]nn1)CCN1CCCN(CCCOC2=O)CC1 (stereo not shown)	> 0.5 µM
COc1cc2cc(c1OC)OCCCC(OC(=O)CCC(=O)N(C)C)CCN1CCCN(CCCOC2=O)CC1 (stereo not shown)	0.02 to 0.5 µM
COc1cc(C(=O)OC2CCCOc3cc(cc(OC)c3OC)C(=O)OCCCN3CCN(CC2)CC(F)(F)C3)cc(OC)c1OC (stereo not shown)	0.001 to 0.02 µM

API: the following record is the query input.
Tested on stimulated primary human T cells, the item COc1cc2cc(c1OC)OCCCC(OC(C)=O)CCN1CCCN(CCCOC2=O)CC1 (stereo not shown) showed IC50 equal to > 0.5 µM
